tested on: Staphylococcus aureus; experiment: Antibacterial activity against Staphylococcus aureus ATCC 25923 after 24 hrs by broth microdilution method; assay type: functional; conditions: ATCC 25923, 24 h
In this section we review reported MIC values for a set of compounds.

compound	result
CC(C)=CCC/C(C)=C/CC/C(C)=C/C1Oc2ccc(O)cc2C2=C1C(=O)C=CC2=O (centres undefined)	6.25 µM
CC(C)=CCC/C(C)=C/CC/C(C)=C/Cc1cc(O)cc2c1OC(/C=C(\C)CC/C=C(\C)CCC=C(C)C)C1=C2C(=O)C2=C(C1=O)S(=O)(=O)CCN2 (centres undefined)	> 200 µM
CC(C)=CCC/C(C)=C/CC/C(C)=C/Cc1cc2c(cc1O)C1=C(C(=O)C3=C(C1=O)S(=O)(=O)CCN3)C(/C=C(\C)CC/C=C(\C)CCC=C(C)C)O2 (centres undefined)	> 200 µM

// next item, MIC requested
Ask: What measured MIC is associated with CC(C)=CCC/C(C)=C/Cc1cc(O)cc2c1OC(/C=C(\C)CCC=C(C)C)C1=C2C(=O)C2=C(NCCS2(=O)=O)C1=O (centres undefined) on Staphylococcus aureus?
Reply: > 200 µM
